Record form. Attribute: residual activity. Fill in for each entry.
biological target: Protein kinase C gamma type (Homo sapiens) (UniProt P05129); settings: at 1 µM

Using the record for N#Cc1c(NC(=O)c2cccc3ccccc23)sc2c1CCCC2 , report its residual activity.
94%

Using the record for O=C(O)/C=C/c1cc(Br)c(Br)c(Br)c1Br , report its residual activity.
96%

Using the record for CC(C)(C)n1nc(Cc2cccc3ccccc23)c2c(N)ncnc21 , report its residual activity.
106%

Using the record for CC(C)(C)c1nc2c3ccc(F)cc3c3c(=O)[nH]ccc3c2[nH]1 , report its residual activity.
40%

Using the record for O=C1NC(=O)C(c2cn(CCCn3ccnc3)c3ccccc23)=C1Nc1ccccc1 , report its residual activity.
8%

Using the record for N#C/C(=C\c1ccc(O)c(O)c1)C(=O)NCc1ccccc1 , report its residual activity.
124%

Using the record for Nc1nc(Nc2ccc(S(N)(=O)=O)cc2)nn1C(=O)c1c(F)cccc1F , report its residual activity.
61%

Using the record for COc1ccc2c(c1)c(C1=C(c3c[nH]c4ccccc34)C(=O)NC1=O)cn2CCCN(C)C , report its residual activity.
3%

Using the record for CC(C)c1nn(-c2c(Cl)cccc2Cl)c2nc(Cc3ccc(OCCO)cc3)[nH]c(=O)c12 , report its residual activity.
94%

Using the record for NCCNc1ncc(C(N)=O)c(Nc2cccc(C(F)(F)F)c2)n1 , report its residual activity.
58%
